- ASSAY SUMMARY: Stability in fetal calf serum at 500 uM at 37 degC
- Assay type: ADME, cell-free, Bos taurus
- DETAILS: cattle, fetal calf serum
Measured half-life at 500 µM values are reported for all entries that follow.
Express it in h; write the number only.

INSERT INTO results (compound, recorded_number) VALUES
  ('BP(=O)(OC[C@@H]1O[C@H](n2cc(C)c(=O)[nH]c2=O)C[C@H]1N=[N+]=[N-])OP(=O)(O)OP(=O)(O)O (single isomer, unassigned; form 2)', 6);

**Query** Need half-life at 500 µM of Cc1cn([C@H]2C[C@H](O)[C@@H](COP(=O)(O)OP(=O)(O)OP(=O)(O)O)O2)c(=O)[nH]c1=O [DEOXYTHYMIDINE_TRIPHOSPHATE] , thanks.
**Result** 2

**Query** Which half-life at 500 µM is listed for Cc1cn([C@H]2C[C@H](N=[N+]=[N-])[C@@H](COP(=O)(O)OP(=O)(O)OP(=O)(O)O)O2)c(=O)[nH]c1=O [ZIDOVUDINE TRIPHOSPHATE] ?
**Result** 2

**Query** What measured half-life at 500 µM goes with Nc1ncnc2c1ncn2[C@@H]1O[C@H](COP(=O)(O)OP(=O)(O)OP(=O)(O)O)[C@@H](O)[C@H]1O [ADENOSINE TRIPHOSPHATE] ?
**Result** 2

----------
- ASSAY SUMMARY: Stability in CEM cell extract
- Assay type: ADME
- DETAILS: human, CEM (CCRF-CEM) cell extract
Below, each of the compounds is paired with its reported half-life value.

INSERT INTO results (compound, result) VALUES
  ('BP(=O)(OC[C@@H]1O[C@H](n2cc(C)c(=O)[nH]c2=O)C[C@H]1N=[N+]=[N-])OP(=O)(O)C(F)(F)P(=O)(O)O (single isomer, unassigned; diastereomer I)', '> 48 h');

Proceeding to the next compound to report its half-life.
**Query** Value lookup for half-life; key = BP(=O)(OC[C@@H]1O[C@H](n2cc(C)c(=O)[nH]c2=O)C[C@H]1N=[N+]=[N-])OP(=O)(O)C(Cl)(Cl)P(=O)(O)O (single isomer, unassigned; diastereomer II)
**Result** > 48 h

----------
- Tested on: Human immunodeficiency virus 1
- ASSAY SUMMARY: Inhibition of HIV1 reverse transcriptase at 0.5 uM
READOUT KIND: inhibition (%)
Quick note: give the figure in %, leave out the unit.

Here's what some known entries look like.
INSERT INTO results (compound, readout_kind, recorded_number) VALUES
  ('Cc1cn([C@@H]2C[C@@H](N=[N+]=[N-])[C@H](COP(=O)(O)OP(=O)(O)C(F)(F)P(=O)(O)N=[N+]=[N-])O2)c(=O)[nH]c1=O', 'inhibition', 24),
  ('Cc1cn([C@@H]2C[C@@H](N=[N+]=[N-])[C@H](COP(=O)(O)C(F)(F)P(=O)(O)OP(=O)(O)c3ccccc3)O2)c(=O)[nH]c1=O', 'inhibition', 11.5),
  ('BP(=O)(OC[C@@H]1O[C@H](n2cc(C)c(=O)[nH]c2=O)C[C@H]1N=[N+]=[N-])OP(=O)(O)C(F)P(=O)(O)O (single isomer, unassigned; diastereomer IV)', 'inhibition', 49);

Now for another entry.
**Query** So what does the record say about inhibition for Cc1cn([C@@H]2C[C@@H](N=[N+]=[N-])[C@H](COP(=S)(S)OP(=O)(O)C(F)(F)P(=O)(O)O)O2)c(=O)[nH]c1=O (some centres undefined) ?
**Result** 19

----------
- ASSAY SUMMARY: Inhibition of HIV1 reverse transcriptase
- Parameters: species or system Human immunodeficiency virus 1
READOUT KIND: pKi
The scale used: pKi is minus the common logarithm of the concentration in molar units.

INSERT INTO assay_data (molecule, recorded_number) VALUES
  ('BP(=O)(OC[C@@H]1O[C@H](n2cc(C)c(=O)[nH]c2=O)C[C@H]1N=[N+]=[N-])OP(=O)(O)OP(=O)(O)O (single isomer, unassigned; form 1)', 8.02),
  ('Cc1cn([C@H]2C[C@H](N=[N+]=[N-])[C@@H](COP(=O)(O)OP(=O)(O)OP(=O)(O)O)O2)c(=O)[nH]c1=O [ZIDOVUDINE TRIPHOSPHATE]', 8.08);

API: the following record is the query input.
**Query** Which pKi value belongs to BP(=O)(OC[C@@H]1O[C@H](n2cc(C)c(=O)[nH]c2=O)C[C@H]1N=[N+]=[N-])OP(=O)(O)C(F)(F)P(=O)(O)O (single isomer, unassigned; diastereomer I) ?
**Result** 8.02

----------
- ASSAY SUMMARY: Inhibition of HIV1 reverse transcriptase
- Parameters: species or system Human immunodeficiency virus 1
pKi: −log10 of the molar value.
Returns one of true or false; true when pKi is >= 7.

Please review the following examples before continuing.
INSERT INTO assay_data (compound, label_class) VALUES
  ('CCNP(=O)(O)C(F)(F)P(=O)(O)OP(=O)(O)OC[C@@H]1O[C@H](n2cc(C)c(=O)[nH]c2=O)C[C@H]1N=[N+]=[N-]', 'false'),
  ('Cc1cn([C@@H]2C[C@@H](N=[N+]=[N-])[C@H](COP(=O)(O)OP(=O)(O)C(F)(F)P(N)(=O)O)O2)c(=O)[nH]c1=O', 'false'),
  ('Cc1cn([C@@H]2C[C@@H](N=[N+]=[N-])[C@H](COP(=O)(O)OP(=O)(O)C(F)(F)P(=O)(O)O)O2)c(=O)[nH]c1=O', 'true');

**Query** # bool: pKi of BP(=O)(OC[C@@H]1O[C@H](n2cc(C)c(=O)[nH]c2=O)C[C@H]1N=[N+]=[N-])OP(=O)(O)C(F)(F)P(=O)(O)O (single isomer, unassigned; diastereomer II) >= 7
**Result** false

**Query** Check the entry Cc1cn([C@@H]2C[C@@H](N=[N+]=[N-])[C@H](COP(=O)(O)OP(=O)(O)C(F)(F)P(=O)(O)Oc3ccccc3)O2)c(=O)[nH]c1=O : does pKi equal or exceed 7?
**Result** false

----------
Below: a set of entries, each annotated with reported pKi.
- ASSAY SUMMARY: Inhibition of HIV1 reverse transcriptase
- Design: species or system Human immunodeficiency virus 1
Recall that pKi is obtained by taking minus log10 of the concentration measured in molar.

INSERT INTO assay_data (molecule, recorded_number) VALUES
  ('BP(=O)(OC[C@@H]1O[C@H](n2cc(C)c(=O)[nH]c2=O)C[C@H]1N=[N+]=[N-])OP(=O)(O)C(Cl)(Cl)P(=O)(O)O (single isomer, unassigned)', 7.03),
  ('BP(=O)(OC[C@@H]1O[C@H](n2cc(C)c(=O)[nH]c2=O)C[C@H]1N=[N+]=[N-])OP(=O)(O)C(Cl)(Cl)P(=O)(O)O (single isomer, unassigned; diastereomer II)', 7.13),
  ('CNP(=O)(O)C(F)(F)P(=O)(O)OP(=O)(O)OC[C@@H]1O[C@H](n2cc(C)c(=O)[nH]c2=O)C[C@H]1N=[N+]=[N-]', 6.91);

**Query** Record request: pKi value, item BP(=O)(OC[C@@H]1O[C@H](n2cc(C)c(=O)[nH]c2=O)C[C@H]1N=[N+]=[N-])OP(=O)(O)C(F)P(=O)(O)O (single isomer, unassigned)
**Result** 7.57

**Query** Look at this molecule and give its reported pKi. Cc1cn([C@@H]2C[C@@H](N=[N+]=[N-])[C@H](COP(=O)(O)OP(=O)(O)C(F)(F)P(=O)(O)Nc3ccccc3)O2)c(=O)[nH]c1=O
**Result** 6.60

**Query** Query (molecule): COP(=O)(O)C(F)(F)P(=O)(O)OP(=O)(O)OC[C@@H]1O[C@H](n2cc(C)c(=O)[nH]c2=O)C[C@H]1N=[N+]=[N-] ; field requested: pKi
**Result** 6.22
